ASSAY_REMARKS: Selectivity index, ratio of CC50 for human MT4 cells to EC50 for HIV1 3B
Format: toxicity
STATED_CONDITIONS: read-out: Ratio CC50/EC50
PARAMETER_MEASURED: selectivity ratio

> print(dat)
                          line.notation  data.value
1  COc1nc2ccc(CSc3ccc4ccccc4c3)cc2nc1OC         2.7

---

ASSAY_REMARKS: Selectivity index, ratio of CC50 for MDBK cells to EC50 for BVDV NADL ATCC VR-534
Assay type: toxicity
STATED_CONDITIONS: cattle, read-out: Ratio CC50/EC50
PARAMETER_MEASURED: selectivity ratio

> print(dat)
                              line.notation  data.value
1  CCOC(=O)CC[C@H](NC(=O)c1ccc(SCc2ccc3nc(OC)c(OC)nc3c2)nc1)C(=O)OCC        > 10

---

ASSAY_REMARKS: Cytotoxicity against MDBK cells assessed as reduction in cell viability after 48 to 96 hrs by MTT assay
Assay type: cell-based, Bos taurus
STATED_CONDITIONS: cattle
PARAMETER_MEASURED: CC50

> print(dat)
                               line.notation  parameter.measured  data.value
 1  CCOC(=O)CC[C@H](NC(=O)c1ccccc1SCc1ccc2nc(OC)c(OC)nc2c1)C(=O)OCC                CC50    > 100 µM
 2    COc1nc2ccc(CSc3ccc(C(=O)O)cn3)cc2nc1OC                CC50    > 100 µM
 3      COc1nc2ccc(CSc3ccc4ccccc4c3)cc2nc1OC                CC50    > 100 µM
 4  C[C@@]1(O)[C@H](O)[C@@H](CO)O[C@H]1n1cnc2c(=O)[nH]c(N)nc21                CC50    > 100 µM
 5  CCOC(=O)c1ccc(SCc2ccc3nc(OC)c(OC)nc3c2)nc1                CC50    > 100 µM
 6    COc1nc2ccc(CSc3ccc(C(=O)O)cc3)cc2nc1OC                CC50    > 100 µM
 7            COc1nc2ccc(CSc3ccccn3)cc2nc1OC                CC50    > 100 µM
 8  CCOC(=O)c1ccc(SCc2ccc3nc(OC)c(OC)nc3c2)cc1                CC50    > 100 µM
 9    COc1nc2ccc(CSc3ccc(Cl)c(Cl)c3)cc2nc1OC                CC50    > 100 µM
10  CCOC(=O)CC[C@H](NC(=O)c1ccc(SCc2ccc3nc(OC)c(OC)nc3c2)nc1)C(=O)OCC                CC50    > 100 µM

---

System: Human alphaherpesvirus 1
ASSAY_REMARKS: Antiviral activity against HSV1 KOS ATCC VR 1493 infected in African green monkey Vero 76 cells after 3 days by plaque reduction assay
Format: functional, organism-based
STATED_CONDITIONS: Human alphaherpesvirus 1, KOS ATCC VR1493, Vero 76, 72 h
pEC50: −log10 of the molar value.
Known pEC50 of a selection of molecules
PARAMETER_MEASURED: pEC50

> print(dat)
                              line.notation  data.value
1    COc1nc2ccc(CSc3ccc(Cl)c(Cl)c3)cc2nc1OC      < 4.12
2    COc1nc2ccc(CSc3ccc(C(=O)O)cn3)cc2nc1OC      < 4.05
3  CCOC(=O)CC[C@H](NC(=O)c1ccc(SCc2ccc3nc(OC)c(OC)nc3c2)nc1)C(=O)OCC      < 4.00
4      COc1nc2ccc(CSc3ccc4ccccc4c3)cc2nc1OC      < 4.00
5  CCOC(=O)CC[C@H](NC(=O)c1ccccc1SCc1ccc2nc(OC)c(OC)nc2c1)C(=O)OCC      < 4.00
6  CCOC(=O)c1ccc(SCc2ccc3nc(OC)c(OC)nc3c2)cc1      < 4.00
7  CCOC(=O)c1ccc(SCc2ccc3nc(OC)c(OC)nc3c2)nc1      < 4.00
8            COc1nc2ccc(CSc3ccccn3)cc2nc1OC      < 4.00
9    COc1nc2ccc(CSc3ccc(C(=O)O)cc3)cc2nc1OC      < 4.19

---

ASSAY_REMARKS: Cytotoxicity against human MT4 cells assessed as reduction in cell viability after 48 to 96 hrs by MTT assay
Format: cell-based
Lab note: compare CC50 with 30 µM, writing Satisfied if less and Not satisfied if equal or more.

> print(dat)
                              line.notation    label.value
1    COc1nc2ccc(CSc3ccc(C(=O)O)cn3)cc2nc1OC  Not satisfied
2      COc1nc2ccc(CSc3ccc4ccccc4c3)cc2nc1OC  Not satisfied
3    COc1nc2ccc(CSc3ccc(C(=O)O)cc3)cc2nc1OC  Not satisfied
4  CCOC(=O)CC[C@H](NC(=O)c1ccccc1SCc1ccc2nc(OC)c(OC)nc2c1)C(=O)OCC  Not satisfied
5  CCOC(=O)c1ccc(SCc2ccc3nc(OC)c(OC)nc3c2)nc1  Not satisfied
6    COc1nc2ccc(CSc3ccc(Cl)c(Cl)c3)cc2nc1OC  Not satisfied
7            COc1nc2ccc(CSc3ccccn3)cc2nc1OC      Satisfied
8  CCOC(=O)CC[C@H](NC(=O)c1ccc(SCc2ccc3nc(OC)c(OC)nc3c2)nc1)C(=O)OCC      Satisfied
9  CCOC(=O)c1ccc(SCc2ccc3nc(OC)c(OC)nc3c2)cc1  Not satisfied

---

ASSAY_REMARKS: Cytotoxicity against African green monkey Vero 76 cells assessed as reduction in cell viability after 48 to 96 hrs by MTT assay
Assay type: cell-based
STATED_CONDITIONS: chlorocebus sabaeus
Known CC50 of a selection of compounds
PARAMETER_MEASURED: CC50

> print(dat)
                               line.notation  data.value
 1    COc1nc2ccc(CSc3ccc(C(=O)O)cc3)cc2nc1OC       65 µM
 2  CCOC(=O)c1ccc(SCc2ccc3nc(OC)c(OC)nc3c2)nc1    > 100 µM
 3  CCOC(=O)CC[C@H](NC(=O)c1ccc(SCc2ccc3nc(OC)c(OC)nc3c2)nc1)C(=O)OCC    > 100 µM
 4  CCOC(=O)c1ccc(SCc2ccc3nc(OC)c(OC)nc3c2)cc1    > 100 µM
 5      COc1nc2ccc(CSc3ccc4ccccc4c3)cc2nc1OC    > 100 µM
 6  Cc1cc(CCCOc2c(C)cc(-c3noc(C(F)(F)F)n3)cc2C)on1    > 100 µM
 7    COc1nc2ccc(CSc3ccc(Cl)c(Cl)c3)cc2nc1OC       75 µM
 8    COc1nc2ccc(CSc3ccc(C(=O)O)cn3)cc2nc1OC       90 µM
 9  CCOC(=O)CC[C@H](NC(=O)c1ccccc1SCc1ccc2nc(OC)c(OC)nc2c1)C(=O)OCC    > 100 µM
10            COc1nc2ccc(CSc3ccccn3)cc2nc1OC    > 100 µM

---

ASSAY_REMARKS: Cytotoxicity against golden hamster BHK21 cells assessed as reduction in cell viability after 48 to 96 hrs by MTT assay
Type: cell-based, Mesocricetus auratus, BHK-21
PARAMETER_MEASURED: CC50

> print(dat)
                                    molecule  data.value
 1  C[C@@]1(O)[C@H](O)[C@@H](CO)O[C@H]1n1cnc2c(=O)[nH]c(N)nc21 [2'-B-METHYL-GUANOSINE]    > 100 µM
 2  CCOC(=O)c1ccc(SCc2ccc3nc(OC)c(OC)nc3c2)cc1    > 100 µM
 3  CCOC(=O)c1ccc(SCc2ccc3nc(OC)c(OC)nc3c2)nc1    > 100 µM
 4            COc1nc2ccc(CSc3ccccn3)cc2nc1OC    > 100 µM
 5    COc1nc2ccc(CSc3ccc(C(=O)O)cn3)cc2nc1OC    > 100 µM
 6  CCOC(=O)CC[C@H](NC(=O)c1ccccc1SCc1ccc2nc(OC)c(OC)nc2c1)C(=O)OCC    > 100 µM
 7  CCOC(=O)CC[C@H](NC(=O)c1ccc(SCc2ccc3nc(OC)c(OC)nc3c2)nc1)C(=O)OCC       85 µM
 8    COc1nc2ccc(CSc3ccc(Cl)c(Cl)c3)cc2nc1OC       80 µM
 9      COc1nc2ccc(CSc3ccc4ccccc4c3)cc2nc1OC    > 100 µM
10    COc1nc2ccc(CSc3ccc(C(=O)O)cc3)cc2nc1OC       65 µM
